Test system: firefly luciferase (FLuc)
protocol-notes: residual bioluminescent signal relative to negative (DMSO) control; higher = less interference (more residual luciferase signal)
measurement-parameters: metal salt concentration 0.01 mM; HEPES conditions (100 mM HEPES, 5 mM MgSO4, 10 uM ATP, pH 7.5)
Catalogue of residual bioluminescent signal readings, one per entry.

>  <molecule>
[Cl-].[Na+] [sodium chloride]

>  <residual bioluminescent signal>
102%

$$$$
>  <molecule>
O=S(=O)([O-])[O-].[Mn+2] [manganese(II) sulfate]

>  <residual bioluminescent signal>
85%

$$$$
>  <molecule>
O.O.O.O.O.O.O.O=S(=O)([O-])[O-].[Mg+2] [magnesium sulfate]

>  <residual bioluminescent signal>
78.3%

$$$$
>  <molecule>
O=S(=O)([O-])[O-].[Fe+2] [iron(II) sulfate]

>  <residual bioluminescent signal>
10.5%

$$$$

###

Listed here are compounds together with their documented residual bioluminescent signal.
System: firefly luciferase (FLuc)
protocol-notes: residual bioluminescent signal relative to negative (DMSO) control; higher = less interference (more residual luciferase signal)
measurement-parameters: metal salt concentration 1 mM; screening conditions (0.5 mM Tris, 50 mM glycine, 0.5 mM EDTA, 5 mM MgSO4, 10 uM ATP, pH 7.6)

>  <compound>
CC#N.CC#N.CC#N.CC#N.F[B-](F)(F)F.[Cu+] [tetrakis(acetonitrile)copper(I) tetrafluoroborate]

>  <residual bioluminescent signal>
0.474%

$$$$
>  <compound>
O=S(=O)([O-])[O-].[Fe+2] [iron(II) sulfate]

>  <residual bioluminescent signal>
0.237%

$$$$
>  <compound>
O=S(=O)([O-])[O-].[Mn+2] [manganese(II) sulfate]

>  <residual bioluminescent signal>
77.1%

$$$$
>  <compound>
O=C([O-])[O-].[Cs+].[Cs+] [caesium carbonate]

>  <residual bioluminescent signal>
103%

$$$$
>  <compound>
[Cl][Fe]([Cl])[Cl] [iron(III) chloride]

>  <residual bioluminescent signal>
0.712%

$$$$

###

Each entry below lists one item and its recorded residual bioluminescent signal value.
System: NanoLuc luciferase (NLuc)
protocol-notes: residual bioluminescent signal relative to negative (DMSO) control; higher = less interference (more residual luciferase signal)
measurement-parameters: metal salt concentration 0.01 mM; HEPES conditions (100 mM HEPES, 0.1% BSA, pH 7.5)

>  <compound>
O=C([O-])[O-].[Cs+].[Cs+] [caesium carbonate]

>  <residual bioluminescent signal [%]>
99.4

$$$$
>  <compound>
[Cl][Pt-2]([Cl])([Cl])[Cl].[K+].[K+] [potassium tetrachloroplatinate(II)]

>  <residual bioluminescent signal [%]>
91.5

$$$$
>  <compound>
CC#N.CC#N.CC#N.CC#N.F[B-](F)(F)F.[Cu+] [tetrakis(acetonitrile)copper(I) tetrafluoroborate]

>  <residual bioluminescent signal [%]>
92.6

$$$$
>  <compound>
O=S(=O)([O-])[O-].[Mn+2] [manganese(II) sulfate]

>  <residual bioluminescent signal [%]>
93.9

$$$$
>  <compound>
O.O.O.O.O.O.O.O=S(=O)([O-])[O-].[Mg+2] [magnesium sulfate]

>  <residual bioluminescent signal [%]>
91

$$$$
>  <compound>
[Cl][Fe][Cl] [iron(II) chloride]

>  <residual bioluminescent signal [%]>
95.6

$$$$

###

// reported residual bioluminescent signal per item
Tested on: firefly luciferase (FLuc)
protocol-notes: residual bioluminescent signal relative to negative (DMSO) control; higher = less interference (more residual luciferase signal)
measurement-parameters: metal salt concentration 5 mM; HEPES conditions (100 mM HEPES, 5 mM MgSO4, 10 uM ATP, pH 7.5)

>  <molecule>
O=C([O-])[O-].[Cs+].[Cs+] [caesium carbonate]

>  <residual bioluminescent signal, %>
79.4

$$$$
>  <molecule>
O=S(=O)([O-])[O-].[Fe+2] [iron(II) sulfate]

>  <residual bioluminescent signal, %>
1.22

$$$$
>  <molecule>
O=S(=O)([O-])[O-].[Mn+2] [manganese(II) sulfate]

>  <residual bioluminescent signal, %>
79.4

$$$$
>  <molecule>
CC#N.CC#N.CC#N.CC#N.F[B-](F)(F)F.[Cu+] [tetrakis(acetonitrile)copper(I) tetrafluoroborate]

>  <residual bioluminescent signal, %>
0.679

$$$$
